All figures here come from BindingDB's records for doi:10.1016/j.bmcl.2014.08.029.

PROTOCOL_DESCRIPTION: Antagonist activity at CRTh2 receptor in human whole blood assessed as inhibition of PGD2-induced eosinophil shape change preincubated for 10 mins with PGD2 addition measured after 4 mins by forward scatter and side scatter analysis
Provide the reported IC50 of each item.
One number for each entry, in nM.

CHEM_SMILES: CCN(Cc1cc(F)ccc1-c1cn(CC(=O)O)c2ccc(C(F)(F)F)cc12)C(=O)C1CC1
IC50 (nM): 17
--
CHEM_SMILES: CCN(Cc1cc(C(F)(F)F)ccc1-n1cc(CC(=O)O)c2ccc(C)nc21)C(=O)NCc1ccccc1
IC50 (nM): 4.7
--
CHEM_SMILES: CCN(Cc1cc(C(F)(F)F)ccc1-c1nn(CC(=O)O)c2cccc(F)c12)C(=O)C1CC1
IC50 (nM): 23
--
CHEM_SMILES: CCN(Cc1cc(C(F)(F)F)ccc1-c1nn(CC(=O)O)c2ccc(F)c(Cl)c12)C(=O)C1CC1
IC50 (nM): 71
--
CHEM_SMILES: CCN(Cc1cc(C(F)(F)F)ccc1-c1nn(CC(=O)O)c2ccc(F)cc12)C(=O)C1CC1
IC50 (nM): 34

Dear colleague, could you send me IC50 for each of the items below? Thanks.
1. CCN(Cc1cc(C(F)(F)F)ccc1-n1cc(CC(=O)O)c2ccc(C)nc21)C(=O)CC1CC1
2. CCN(Cc1cc(C(F)(F)F)ccc1-c1cn(CC(=O)O)c2ccc(C)nc12)C(=O)C1CC1
3. CCN(Cc1cc(C(F)(F)F)ccc1-c1nn(CC(=O)O)c2ccc(C)cc12)C(=O)C1CC1
4. CCN(Cc1cc(C(F)(F)F)ccc1-c1nn(CC(=O)O)c2cccc(C)c12)C(=O)C1CC1

Solution:
1. 29
2. 10
3. 13
4. 108

Dear colleague, could you send me IC50 for each of the items below? Thanks.
1. CCN(Cc1cc(C(F)(F)F)ccc1-n1cc(CC(=O)O)c2cccnc21)C(=O)C1CC1
2. CCN(Cc1cc(Cl)ccc1-n1cc(CC(=O)O)c2ccc(C)nc21)C(=O)C1CC1

Solution:
1. 34
2. 18

Dear colleague, could you send me IC50 for each of the items below? Thanks.
1. CCN(Cc1cc(C(F)(F)F)ccc1-c1nn(CC(=O)O)c2cccc(OC)c12)C(=O)C1CC1
2. CCN(Cc1cc(C(F)(F)F)ccc1-c1nn(CC(=O)O)c2cccc(Cl)c12)C(=O)C1CC1
3. CCN(Cc1cc(C(F)(F)F)ccc1-c1cn(CC(=O)O)c2ccc(C(F)(F)F)nc12)C(=O)C1CC1
4. CCN(Cc1cc(C(F)(F)F)ccc1-c1cc(CC(=O)O)n2ccc(C)nc12)C(=O)C1CC1
5. CCN(Cc1cc(C(F)(F)F)ccc1-n1cc(CC(=O)O)c2ccc(C)nc21)C(=O)C1CC1
6. CCN(Cc1cc(F)ccc1-n1cc(CC(=O)O)c2ccc(C)nc21)C(=O)C1CC1
7. CCN(Cc1cc(C(F)(F)F)ccc1-c1nn(CC(=O)O)c2ccc(Cl)c(F)c12)C(=O)C1CC1

Solution:
27
160
82
24
7.8
6.4
18

Dear colleague, could you send me IC50 for each of the items below? Thanks.
1. CCN(Cc1cc(C(F)(F)F)ccc1-n1cc(CC(=O)O)c2ccc(C)nc21)C(=O)COC
2. CCN(Cc1ccccc1-n1cc(CC(=O)O)c2ccc(C)nc21)C(=O)C1CC1
3. CCN(Cc1cc(F)ccc1-n1cc(CC(=O)O)c2cccnc21)C(=O)C1CC1
4. CCN(Cc1cc(C(F)(F)F)ccc1-n1cc(CC(=O)O)c2ccc(C)nc21)C(=O)Cc1ccccc1
5. CCN(Cc1cc(C(F)(F)F)ccc1-c1nn(CC(=O)O)c2ccc(Cl)cc12)C(=O)C1CC1
6. CCN(Cc1cc(C(F)(F)F)ccc1-c1nn(CC(=O)O)c2cccc(C#N)c12)C(=O)C1CC1
7. Cc1ccc2c(CC(=O)O)cn(-c3ccc(C(F)(F)F)cc3CN(CCOc3ccccc3)C(=O)C3CC3)c2n1
8. CCN(Cc1cc(C)ccc1-n1cc(CC(=O)O)c2ccc(C)nc21)C(=O)C1CC1

Solution:
1: 5; 2: 9.5; 3: 11; 4: 25; 5: 23; 6: 103; 7: 60; 8: 13

###

PROTOCOL_DESCRIPTION: Antagonist activity at CRTh2 receptor in human whole blood assessed as inhibition of PGD2-induced eosinophil shape change preincubated for 10 mins with PGD2 addition measured after 4 mins by forward scatter and side scatter analysis
MEASUREMENT_NAME: pIC50
Answers are plain numbers, as −log10 of the molar value.

CHEM_SMILES: CCN(Cc1cc(OC(F)(F)F)ccc1-n1cc(CC(=O)O)c2ccc(C)nc21)C(=O)C1CC1
pIC50: 8.17

Dear colleague, could you send me pIC50 for each of the items below? Thanks.
1. CCN(Cc1cc(C(F)(F)F)ccc1-n1cc(CC(=O)O)c2ccc(C(F)F)nc21)C(=O)C1CC1
2. CCN(Cc1cc(C(F)(F)F)ccc1-c1cc(CC(=O)O)c2ccc(C)nn12)C(=O)C1CC1
3. CCN(Cc1ccccc1-n1cc(CC(=O)O)c2ccc(C(F)(F)F)cc21)C(=O)C1CC1
4. Cc1ccc2c(CC(=O)O)cn(-c3ccc(C(F)(F)F)cc3CN(CC3CC3)C(=O)C3CC3)c2n1
5. CCN(Cc1cc(C(F)(F)F)ccc1-n1cc(CC(=O)O)c2ccc(C)nc21)C(=O)C1CCC1

Solution:
1. 8.10
2. 8.14
3. 8.11
4. 7.66
5. 8.07
